Reported conditions: 298.15 K; 101.33 kPa; Liquid
Listed here: items and their measured mass density.
The reply should be a number in kg/m3, with the unit left off.

CCOC(C)=O [ethyl acetate] ... 894.33
CCCCC(=O)OCC [ethyl pentanoate] ... 869.42
CCOC=O [ethyl methanoate] ... 914.17
ClCCCl [1,2-dichloroethane] ... 1245.65
ClCCCCCl [1,4-dichlorobutane] ... 1133.32
ClCCCCCCl [1,5-dichloropentane] ... 1095.27
ClCCCCl [1,3-dichloropropane] ... 1178.34
CCOC(=O)CC [ethyl propanoate] ... 884.02
ClCCCCCCCl [1,6-dichlorohexane] ... 1063.72

Please find the next compound below.
Looking up CCCC(=O)OCC [ethyl butanoate] , I see its mass density listed as 873.54
